# Substrate: CCCCCCCCCCCCCCCCOC[C@@H](O)COP(=O)([O-])OCC[N+](C)(C)C
# ASSAY: released choline by choline oxidase/peroxidase colorimetric assay, Michaelis-Menten fit
# Type: biochemical, Thermocrispum sp. RD004668
# STUDY CONDITIONS: pH 8.0, 50 °C, 1 min, 2 mM CaCl2, substrate micelles

# PROTEIN, QUANTITY UNIT, kcat
rows = [
    ("LyPls-PLD (lysoplasmalogen-specific phospholipase D) (Thermocrispum sp. RD004668; F211L) (protein, recombinant from pET24/lpls-pld in E. coli BL21(DE3); purified on HisTrap HP) TTRTTDNPWLDARVLNMAHAGGENEAPANTLYAFKRAVKLGANMLELDVQSTKDDQLVVIHNATVDQTTDGTGKVRDLTFEQVHELDAAYNFIPGRHAVPGEPPESYPLRGVRTGEKKPPPGYQPSDFAIPKLADVLEAFPRTPINIEIKGTSDADIPSFLHNAKLLARLLKKTGRTDFIVTSLNDLAVAKFHLLAPDIPIAPGMAGLAAYFLLGVKPMHGTVALQIPVRYQGLEIATPEFIRRAHADGYAVHVWFSGTAPDDEATYNRIIDSCADGLMPAYPALLERILDERGIERPGRPGVDPCG", "s⁻¹", 187),
]
